ASSAY: TOX21_p53_BLA_p5_viability: Viability Assessment in the Tox21 HCT-116 p53 Agonism Beta-lactamase Assay, Phase 5 (AID 2283600)
Description: TOX21_p53_BLA_p5 is a cell-based, single-readout assay that uses HCT116, a human intestinal cell line, […] in a 1536-well plate.TOX21_p53_BLA_p5_viability is an assay readout measuring cellular ATP content and detected with CellTiter-Glo Luciferase-coupled ATP quantitation.TOX21_p53_BLA_p5_viability used a type of viability reporter where loss-of-signal activity can be used to understand changes in the cell viability. […]
Inconclusive results are not listed. Calls of active or inactive are those of the source. How the source made its calls: active means hit-call score of the fitted dose curve at least 0.9, where 1 is the maximum; inconclusive means response in the unintended direction; inactive means score below 0.9.
Give your call using only these classes: active, inactive

The examples below pair each entry with its known result.
Oc1cccc[c]1[Hg][Cl]
active
ClCC(Cl)Cl
inactive
Nc1c(Br)cc([N+](=O)[O-])cc1[N+](=O)[O-]
inactive
CCCC=NO
inactive
COc1cccc(C(=O)CCN[C@@H](C)[C@H](O)c2ccccc2)c1
inactive
CS(=O)(=O)Cl
inactive
[Hg+2].[I-].[I-]
active
CCCOC(=O)c1ccccc1C(=O)OCCC
inactive
O=NN1CCNCC1
inactive
S=C=NCc1ccccc1
inactive

Hey, what did the test say about Clc1ccc(C2(Cn3cncn3)OCCO2)c(Cl)c1 ? inactive

Hey, what did the test say about Cc1ccc2c(C)cccc2c1 ? inactive

Hey, what did the test say about Nc1cc(Cl)ccc1O ? inactive

Hey, what did the test say about c1ccc2c(c1)CCNC2 ? inactive

Hey, what did the test say about CC(N)Cc1ccc(O)cc1 (configuration not stated) ? inactive

----------
STUDY_SYSTEM: Retinoic acid receptor RXR-alpha (Homo sapiens)
ASSAY: ATG_RXRa_TRANS: Attagene TRANS-FACTORIAL HepG2 Assay for human Retinoid X Receptor alpha (RXRa) (AID 2283012)
Results filed as inconclusive are left out. The source made the active and inactive calls. How the source made its calls: active means hit-call score of the fitted dose curve at least 0.9, where 1 is the maximum; inconclusive means response in the unintended direction; inactive means score below 0.9.
Give your call using only these classes: t (active), f (inactive)

The examples below pair each entry with its known result.
CC(C)(C)C(=O)CCl
f
Cc1ccccc1CCl
f
Cc1ccc(C)c2ccccc12
f
C[N+](C)=CCl
f
CNC(=O)Oc1cc(C)c(SC)c(C)c1
f
CCOP(=O)(OCC)OCC
f
O=C1Nc2ccc(Cl)cc2C(c2ccccc2)=NC1O (configuration not stated)
f
CCCC=NO
f
CCc1cc(C)cc(CC)c1-c1c(OC(=O)C(C)(C)C)n2n(c1=O)CCOCC2
f
CC(=O)c1cc2c(cc1C)C(C)(C)C(C)CC2(C)C (configuration not stated)
t

Hey, what did the test say about CCOP(=O)(OCC)Oc1ccc([N+](=O)[O-])cc1 ? f

Hey, what did the test say about N#Cc1cc(I)c(O)c(I)c1 ? f

Hey, what did the test say about CCOP(O)OCC ? f

Hey, what did the test say about Nc1ccc([N+](=O)[O-])cc1N ? f

Hey, what did the test say about C=CC(=O)OCCO ? f

Hey, what did the test say about O=C1C(Cl)=C(Cl)C(=O)C(Cl)=C1Cl ? f

Hey, what did the test say about Oc1ccc(C2(c3ccc(O)cc3)c3ccccc3-c3ccccc32)cc1 ? f

----------
STUDY_SYSTEM: bovine Gamma-Aminobutyric Acid Type A Receptor BDZ, alpha 1 site (GABARa1), GABRA1 (gene 780973) (UniProt P08219)
Sequence (P08219 whole entry, looked up): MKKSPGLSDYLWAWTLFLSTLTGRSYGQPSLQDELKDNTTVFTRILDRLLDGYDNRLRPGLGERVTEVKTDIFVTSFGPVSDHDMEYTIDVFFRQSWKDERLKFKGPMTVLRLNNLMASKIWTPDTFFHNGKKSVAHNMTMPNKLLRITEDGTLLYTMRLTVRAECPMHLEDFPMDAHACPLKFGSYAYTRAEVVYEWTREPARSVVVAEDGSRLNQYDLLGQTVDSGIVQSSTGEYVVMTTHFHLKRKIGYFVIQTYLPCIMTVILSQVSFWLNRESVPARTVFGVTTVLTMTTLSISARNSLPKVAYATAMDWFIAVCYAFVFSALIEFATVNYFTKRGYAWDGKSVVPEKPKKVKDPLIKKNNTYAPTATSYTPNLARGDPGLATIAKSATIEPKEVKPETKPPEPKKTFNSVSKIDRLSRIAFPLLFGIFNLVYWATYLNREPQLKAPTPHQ
ASSAY: NVS_LGIC_bGABARa1: NovaScreen (NVS) Ligand-Gated Ion Channel Assay for bovine Gamma-Aminobutyric Acid Type A Receptor BDZ, alpha 1 site (GABARa1) (AID 2283321)
Inconclusive results are not listed. Active and inactive are the calls of the source. Rule for the calls: active = hit-call score of the fitted dose curve at least 0.9, where 1 is the maximum; inconclusive = response in the unintended direction; inactive = score below 0.9.
Give your call using only these classes: 1 (yes) (active), 0 (no) (inactive)

The examples below pair each entry with its known result.
C#C[C@]1(O)CC[C@H]2[C@@H]3CCC4=CC(=O)CC[C@@H]4[C@H]3CC[C@@]21C
1 (yes)
CCC(C)N(C)C(=O)c1cc2ccccc2c(-c2ccccc2Cl)n1 (stereo unspecified)
1 (yes)
Clc1cc(Cl)c(Cl)cc1Cl
0 (no)

Hey, what did the test say about CCCCOC(=O)c1ccc(O)cc1 ? 1 (yes)

Hey, what did the test say about COC(=O)CSc1cc(N=c2sc(=O)n3n2CCCC3)c(F)cc1Cl ? 0 (no)

Hey, what did the test say about Cc1[nH]nc2c1N=C(c1ccccc1Cl)c1cc([N+](=O)[O-])ccc1N2 ? 1 (yes)

Hey, what did the test say about CCOC(=O)C(C)(C)Oc1ccc(Cl)cc1 ? 1 (yes)

Hey, what did the test say about NC(=O)N1c2ccccc2C=Cc2ccccc21 ? 0 (no)

Hey, what did the test say about CC(C)(c1ccc(O)cc1)c1ccc(O)cc1 ? 0 (no)

Hey, what did the test say about c1ccc2[nH]c(-c3cscn3)nc2c1 ? 0 (no)

Hey, what did the test say about CN(C[C@@H](CC[N+]12CCC(C3CCCCC3)(CC1)CC2)c1ccc(Cl)c(Cl)c1)C(=O)c1cc(C(F)(F)F)cc(C(F)(F)F)c1 ? 0 (no)

----------
ASSAY: ATG_FoxO_CIS: Attagene CIS-FACTORIAL HepG2 Assay for human Forkhead box O (FoxO) (AID 2282943)
CONDITION_DETAILS: HepG2 Attagene cis-reporter, FoxO element, mRNA; actives raise or lower the signal
Calls of active or inactive are those of the source. The calls were made as follows: active = hit-call score of the fitted dose curve at least 0.9, where 1 is the maximum; inactive = score below 0.9.
Give your call using only these classes: 1.0 for active, 0.0 for inactive

The examples below pair each entry with its known result.
O=C(O)c1cc[c]([Hg][Cl])cc1
0.0
CC(C)c1ccc(O)cc1
0.0
CCc1cccc(C)c1N(C(=O)CCl)[C@@H](C)COC
0.0

Hey, what did the test say about CCOC(=O)N(C)N=O ? 0.0

Hey, what did the test say about Nc1ccc(Cl)c(Cl)c1 ? 0.0

Hey, what did the test say about CCOP(=O)(OCC)Oc1ccc([N+](=O)[O-])cc1 ? 0.0

Hey, what did the test say about CN(C)CCC#N ? 0.0

Hey, what did the test say about Oc1ccc(Cl)cc1 ? 0.0

Hey, what did the test say about CCN(CC)C(=S)S ? 0.0

----------
STUDY_SYSTEM: Estrogen receptor (Homo sapiens) + Estrogen receptor beta (Homo sapiens) (UniProt P03372+Q92731)
Sequence (P03372 whole entry, looked up, the tested form may be a part): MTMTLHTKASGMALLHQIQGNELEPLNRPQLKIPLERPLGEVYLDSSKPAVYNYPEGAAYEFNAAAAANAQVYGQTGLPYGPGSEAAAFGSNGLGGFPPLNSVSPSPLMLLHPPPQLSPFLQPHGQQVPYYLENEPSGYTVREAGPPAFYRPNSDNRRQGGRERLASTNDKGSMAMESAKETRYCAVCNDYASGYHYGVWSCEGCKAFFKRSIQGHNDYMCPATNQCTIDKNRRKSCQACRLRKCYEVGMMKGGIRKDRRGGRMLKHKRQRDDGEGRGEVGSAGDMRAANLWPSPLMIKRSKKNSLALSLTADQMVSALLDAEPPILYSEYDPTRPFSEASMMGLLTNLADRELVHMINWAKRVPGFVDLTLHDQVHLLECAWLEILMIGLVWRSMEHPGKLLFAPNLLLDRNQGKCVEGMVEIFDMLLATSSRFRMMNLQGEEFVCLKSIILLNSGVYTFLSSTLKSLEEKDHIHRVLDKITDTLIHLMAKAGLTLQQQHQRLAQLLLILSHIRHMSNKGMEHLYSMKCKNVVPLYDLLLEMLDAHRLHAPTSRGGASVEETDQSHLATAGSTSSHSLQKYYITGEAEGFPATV
Sequence (Q92731 whole entry, looked up, the tested form may be a part): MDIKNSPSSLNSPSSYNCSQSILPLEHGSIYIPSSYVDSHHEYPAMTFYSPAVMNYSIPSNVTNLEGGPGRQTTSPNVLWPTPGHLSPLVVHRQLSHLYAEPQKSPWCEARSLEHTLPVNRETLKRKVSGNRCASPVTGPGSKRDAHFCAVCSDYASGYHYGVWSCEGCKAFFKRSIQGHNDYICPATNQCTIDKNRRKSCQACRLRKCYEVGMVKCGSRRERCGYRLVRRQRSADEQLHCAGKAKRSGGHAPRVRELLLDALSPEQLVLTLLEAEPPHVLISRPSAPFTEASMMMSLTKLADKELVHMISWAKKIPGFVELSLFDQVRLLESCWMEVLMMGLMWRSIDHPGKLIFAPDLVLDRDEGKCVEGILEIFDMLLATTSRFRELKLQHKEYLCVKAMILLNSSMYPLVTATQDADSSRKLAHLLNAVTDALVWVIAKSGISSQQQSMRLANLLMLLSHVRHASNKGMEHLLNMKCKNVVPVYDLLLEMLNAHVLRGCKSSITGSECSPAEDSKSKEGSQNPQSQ
ASSAY: OT_ER_ERaERb_1440: Odyssey Thera (OT) 24-hour HEK293T Protein-Complementation Assay for Estrogen Receptor-alpha/-beta Homodimer (AID 2283356);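 further: heteromer of ER alpha and ER beta binding domains; hits raise reporter fluorescence and both agonists and antagonists give an increase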
Results filed as inconclusive are left out. The source made the active and inactive calls. The calls were made as follows: active = hit-call score of the fitted dose curve at least 0.9, where 1 is the maximum; inconclusive = response in the unintended direction; inactive = score below 0.9.
EXPERIMENTAL_READOUT: outcome

c1cc[n+]2c(c1)-c1cccc[n+]1CC2
inactive
O=CNC(N1CCN(C(NC=O)C(Cl)(Cl)Cl)CC1)C(Cl)(Cl)Cl (centres undefined)
inactive
c1ccc2c(c1)CCCC2
inactive
Cc1cc(C)c(C2=C(OC(=O)CC(C)(C)C)C3(CCCC3)OC2=O)c(C)c1
inactive

----------
STUDY_SYSTEM: Nuclear receptor subfamily 1 group I member 2 (Homo sapiens) (UniProt O75469)
Sequence (O75469 whole entry, looked up): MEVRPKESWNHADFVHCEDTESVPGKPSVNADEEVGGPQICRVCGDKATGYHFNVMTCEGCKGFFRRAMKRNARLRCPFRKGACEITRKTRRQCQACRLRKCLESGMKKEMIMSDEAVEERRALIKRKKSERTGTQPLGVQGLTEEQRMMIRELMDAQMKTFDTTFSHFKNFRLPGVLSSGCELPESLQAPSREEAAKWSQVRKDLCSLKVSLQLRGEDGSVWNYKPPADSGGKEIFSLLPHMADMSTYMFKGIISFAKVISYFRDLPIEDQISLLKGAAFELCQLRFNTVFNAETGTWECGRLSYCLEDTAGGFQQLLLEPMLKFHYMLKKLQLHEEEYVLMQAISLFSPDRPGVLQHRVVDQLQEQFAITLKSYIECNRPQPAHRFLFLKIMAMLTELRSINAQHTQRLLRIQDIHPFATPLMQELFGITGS
ASSAY: ATG_PXR_TRANS: Attagene TRANS-FACTORIAL HepG2 Assay for human Pregnane X Receptor (PXR) (AID 2283008)
Results filed as inconclusive are left out. Activity calls are given as the source filed them. Rule for the calls: active = hit-call score of the fitted dose curve at least 0.9, where 1 is the maximum; inconclusive = response in the unintended direction; inactive = score below 0.9.
Give your call using only these classes: True (active), False (inactive)

The examples below pair each entry with its known result.
c1cc(OCC2CO2)ccc1Cc1ccc(OCC2CO2)cc1 (stereo not drawn)
True
O=C1Nc2ccc(Cl)cc2C(c2ccccc2)=NC1O (stereo not drawn)
False
[CH3][Sn]([Cl])([Cl])[Cl]
False
CCC(C)c1cc(C(C)(C)C)cc(-n2nc3ccccc3n2)c1O (stereo not drawn)
False
O=C(O)COc1ccccc1
False

Hey, what did the test say about O=P(O)(Oc1ccccc1)Oc1ccccc1 ? False

Hey, what did the test say about CCC(Br)(CC)C(=O)NC(N)=O ? False

Hey, what did the test say about O=S(=O)(O)O ? False

Hey, what did the test say about CCc1cccc(C)c1N(C(=O)CCl)[C@@H](C)COC ? True

----------
ASSAY: TOX21_p53_BLA_p2_viability: Viability Assessment in the Tox21 HCT-116 p53 Agonism Beta-lactamase Assay, Phase 2 (AID 2283591);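 further: compound exposure lasted 16 h at 37 °C; actives lower the ATP signal meaning cytotoxicity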
Inconclusive results are not listed. Activity calls are given as the source filed them. Rule for the calls: active = hit-call score of the fitted dose curve at least 0.9, where 1 is the maximum; inconclusive = response in the unintended direction; inactive = score below 0.9.
Give your call using only these classes: class 1 = active, class 0 = inactive

The examples below pair each entry with its known result.
CCC1(c2ccccc2)C(=O)NC(=O)N(C(=O)c2ccccc2)C1=O (centres undefined)
class 0
COc1cccc2c1cc([N+](=O)[O-])c1c(C(=O)O)cc3c(c12)OCO3
class 0
CC(=O)C(Cl)(Cl)Cl
class 0
C=CCOC(C)=O
class 0
CCCC[N+](CCCC)(CCCC)CCCC
class 0
N#Cc1cc(I)c(O)c(I)c1
class 0
O=[N+]([O-])C=Cc1ccccc1
class 1
CCC(C)Cl (centres undefined)
class 0
CCC(C)c1cc([N+](=O)[O-])cc([N+](=O)[O-])c1OC(=O)C=C(C)C (centres undefined)
class 0
NC(=O)CN1CCCC1=O
class 0

Hey, what did the test say about C[C@]12CCC(=O)C[C@@H]1CC[C@@H]1[C@@H]2CC[C@@]2(C)[C@H]1CC[C@]2(C)O ? class 0

Hey, what did the test say about C=CC(=O)OC(C)(C)C ? class 0

Hey, what did the test say about CN1[C@@H]2CC[C@H]1CC(O)C2 (some centres undefined) ? class 0

Hey, what did the test say about Cc1cccc2sc3nncn3c12 ? class 0
